- Protocol Conditions: in ethyl acetate, 278.15 K
Readout Label: solubility (mole fraction)
Output spec: single numeric token, no unit.

Value lookup for solubility (mole fraction); key = Oc1ccccc1C=N[C@@H]1CCCC[C@H]1N=Cc1ccccc1O
0.0294

====

- Protocol Conditions: in THF, 313.15 K
Readout Label: solubility (mole fraction)
Output spec: single numeric token, no unit.

Value lookup for solubility (mole fraction); key = Oc1ccccc1C=N[C@@H]1CCCC[C@H]1N=Cc1ccccc1O
0.263

====

- Protocol Conditions: in n-hexane, 298.15 K
Readout Label: solubility (mole fraction)

Value lookup for solubility (mole fraction); key = Oc1ccccc1C=N[C@@H]1CCCC[C@H]1N=Cc1ccccc1O
0.00223

====

- Protocol Conditions: in methyl acetate, 313.15 K
Readout Label: solubility (mole fraction)
Output spec: single numeric token, no unit.

Value lookup for solubility (mole fraction); key = Oc1ccccc1C=N[C@@H]1CCCC[C@H]1N=Cc1ccccc1O
0.0961

====

- Protocol Conditions: in methyl acetate, 298.15 K
Readout Label: solubility (mole fraction)

Value lookup for solubility (mole fraction); key = Oc1ccccc1C=N[C@@H]1CCCC[C@H]1N=Cc1ccccc1O
0.0532

====

- Protocol Conditions: in methanol, 288.15 K
Readout Label: solubility (mole fraction)
Output spec: single numeric token, no unit.

Value lookup for solubility (mole fraction); key = Oc1ccccc1C=N[C@@H]1CCCC[C@H]1N=Cc1ccccc1O
0.00103

====

- Protocol Conditions: in 1,2-dichloroethane, 308.15 K
Readout Label: solubility (mole fraction)

Value lookup for solubility (mole fraction); key = Oc1ccccc1C=N[C@@H]1CCCC[C@H]1N=Cc1ccccc1O
0.187

====

- Protocol Conditions: in ethanol, 298.15 K
Readout Label: solubility (mole fraction)
Output spec: single numeric token, no unit.

Value lookup for solubility (mole fraction); key = Oc1ccccc1C=N[C@@H]1CCCC[C@H]1N=Cc1ccccc1O
0.00236

====

- Protocol Conditions: in methanol, 308.15 K
Readout Label: solubility (mole fraction)
Output spec: single numeric token, no unit.

Value lookup for solubility (mole fraction); key = Oc1ccccc1C=N[C@@H]1CCCC[C@H]1N=Cc1ccccc1O
0.00242

====

- Protocol Conditions: in dichloromethane, 303.15 K
Readout Label: solubility (mole fraction)
Output spec: single numeric token, no unit.

Value lookup for solubility (mole fraction); key = Oc1ccccc1C=N[C@@H]1CCCC[C@H]1N=Cc1ccccc1O
0.197

====

- Protocol Conditions: in toluene, 303.15 K
Readout Label: solubility (mole fraction)
Output spec: single numeric token, no unit.

Value lookup for solubility (mole fraction); key = Oc1ccccc1C=N[C@@H]1CCCC[C@H]1N=Cc1ccccc1O
0.11

====

- Protocol Conditions: in dichloromethane, 293.15 K
Readout Label: solubility (mole fraction)
Output spec: single numeric token, no unit.

Value lookup for solubility (mole fraction); key = Oc1ccccc1C=N[C@@H]1CCCC[C@H]1N=Cc1ccccc1O
0.165

====

- Protocol Conditions: in acetone, 273.15 K
Readout Label: solubility (mole fraction)
Output spec: single numeric token, no unit.

Value lookup for solubility (mole fraction); key = Oc1ccccc1C=N[C@@H]1CCCC[C@H]1N=Cc1ccccc1O
0.0295

====

- Protocol Conditions: in dichloromethane, 308.15 K
Readout Label: solubility (mole fraction)
Output spec: single numeric token, no unit.

Value lookup for solubility (mole fraction); key = Oc1ccccc1C=N[C@@H]1CCCC[C@H]1N=Cc1ccccc1O
0.213
